TEST TARGET: OCT1*1 (Homo sapiens, UniProt O15245, L160F)
Construct: expressed in transfected cells; host or cells: HEK293 T-REx (Flp-In)
Sequence (O15245 1-554 L160F): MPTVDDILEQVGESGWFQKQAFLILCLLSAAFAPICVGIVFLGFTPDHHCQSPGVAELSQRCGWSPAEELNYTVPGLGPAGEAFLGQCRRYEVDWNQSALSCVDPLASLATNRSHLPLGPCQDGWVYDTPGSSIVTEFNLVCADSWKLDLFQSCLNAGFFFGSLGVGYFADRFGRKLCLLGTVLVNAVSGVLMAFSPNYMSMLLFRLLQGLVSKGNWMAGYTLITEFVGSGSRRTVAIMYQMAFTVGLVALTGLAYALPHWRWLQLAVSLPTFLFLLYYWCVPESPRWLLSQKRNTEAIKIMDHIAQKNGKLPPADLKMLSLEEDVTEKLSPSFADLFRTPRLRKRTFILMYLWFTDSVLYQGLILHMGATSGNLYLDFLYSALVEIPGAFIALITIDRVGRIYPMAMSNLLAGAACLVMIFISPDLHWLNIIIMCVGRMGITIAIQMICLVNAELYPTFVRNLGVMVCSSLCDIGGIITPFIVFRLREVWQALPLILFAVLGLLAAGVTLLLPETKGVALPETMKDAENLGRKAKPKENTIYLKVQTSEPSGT
ASSAY PROCEDURE: Inhibition by ranitidine of OCT1-mediated substrate uptake, reference allele, HEK293 cells
Assay type: cell-based
EXPERIMENTAL CONDITIONS: substrate 0.1 μM MPP+, OCT1*1, 2 min, HEK293
MEASURED PROPERTY: IC50
Returns: string containing the number followed by the unit.

get_value(item= CNC(=C[N+](=O)[O-])NCCSCc1ccc(CN(C)C)o1 [ranitidine, Ranitidine] , readout=IC50) returns 81.9 µM
